- Test system: HepG2-GM130-SQSTM1
- experimentalDetails: phenotypically active (imaging signature differs from DMSO and reproducible) at any of 0.3-9 uM (binary (1 = active, 0 = inactive)); higher = active
- runParameters: treatment time: 24 h
Entry note: the call must match one of Yes = active, No = inactive

Reference set, count: 4
compound | targetEntity | classLabel
CNC(=O)Oc1ccc2c(c1)[C@]1(C)CCN(C)O[C@@H]1N2C | HepG2-GM130-SQSTM1 | No
O=C1NC(=S)N(c2cccc(Br)c2)C(=O)/C1=C/c1ccco1 | HepG2-GM130-SQSTM1 | Yes
CN1[C@@H]2CC[C@H]1C[C@@H](OC(=O)[C@H](CO)c1ccccc1)C2 | HepG2-GM130-SQSTM1 | No
NC(=S)N/N=C/c1coc2ccccc2c1=O | HepG2-GM130-SQSTM1 | No

Next item in the queue.
Just curious, what result did COc1ccc2c(c[n+](C)c3c4cc5c(cc4ccc23)OCO5)c1OC [Chelerythrine chloride] get here? No
